measurement.kind: melting point

structure.as.smiles	value.measured
Cc1cc2c(c(C)c1NC(=O)OC(C)(C)C)C(=O)C(C)(C)O2	156 to 157 °C
CCc1nn(CCCO)c(CC)c1Cc1cc(Cl)cc(Cl)c1	56 to 59 °C
COc1cc2[nH]c(=O)sc2cc1OC	192 to 193 °C
CC(=O)Oc1cccc2c1C(=O)c1c(OC(C)=O)cc(-c3nc4ccccc4n3C)cc1C2=O	279 to 280 °C
C=CCNC(=O)n1nc(-c2ccccc2)cc1NC(=O)CC(=O)C(F)(F)F	114 to 116 °C
CNS(=O)(=O)OCCOc1ccc(-n2ccnc2)cc1	85 to 88 °C

Query :: Which melting point is reported for this compound? BrCCOc1cccc2c1SCCC2
Result :: 62 °C

Query :: One more compound: O=C(C#Cc1ccc(CCN2CCCC2)cc1)Nc1ccc(-c2ccccc2)cc1
Result :: 180 to 189 °C

Query :: Thanks! And CCOC(=O)/C=C/c1c(-c2ccccc2)c2cc(C)c(C)cc2c(=O)n1C ?
Result :: 143 to 145 °C

Query :: Would you mind doing Cc1cc(C)c(S(=O)(=O)N=[N+]=[N-])c(C)c1S(=O)(=O)N=[N+]=[N-] as well?
Result :: 54 to 56 °C

Query :: Subsequent entry: CC1(C(=O)N2C[C@@H]3C[C@H]2C(=O)O3)CC1
Result :: 101 to 102 °C

###

Property: melting point; scope: individual compounds

These recorded examples may help you get a feel for the data.
compound	melting point
COc1ccc(C(=O)Nc2ccccc2C(O)Cc2ccccn2)cc1 (stereo not given)	127 to 128 °C
CC(C)[C@@H]1N(C(=O)OCc2ccccc2)CO[C@]1(O)C(F)(F)F	73 to 74 °C
CCCNCCCC(c1ccccc1)c1ccccc1	94 to 96 °C
CC(=O)Nc1ccc2c(c1)C(=O)C(Br)CCO2 (stereo not given)	157 to 160 °C

Query :: Record request: melting point value, item COC(=O)[C@@H](NC(=O)[C@H](Cc1ccccc1)NC(=O)c1ccccc1)C(C)C
Result :: 160 to 163 °C

###

measurement.kind: melting point

Worked examples follow.
compound	melting point
Nc1ccccc1C(=O)NCCCN1CCC(C(=O)c2ccc(F)cc2)CC1	113 °C
O=C1Nc2ccc(S(=O)(=O)N3CCC[C@H]3COc3ccccc3)cc2C1=O	204 to 206 °C
CS(=O)c1ccc(-c2ccc(C=C(Cl)Cl)s2)cc1 (stereo not drawn)	124 to 126 °C
CCOC(=O)C1CNC(=O)CC1c1ccc(F)cc1 (stereo not drawn)	116 to 120 °C
COc1cc2c(cc1OC)CNCC2	139 to 141 °C
COC(=O)Cn1c(CCc2ccccc2)ccc(NC(=O)OCc2ccccc2)c1=O	102 to 104 °C

Here's the next entry for you.
Query :: # query: melting point of entry Cc1cc(-c2ccc(Cl)c(Cl)c2)nc(-n2cnc(-c3ccc(S(N)(=O)=O)s3)c2)n1
Result :: 254 °C

###

Entries and their measured melting point follow.

compound	melting point
CC(C)(C)OC(=O)N1CCCN(c2ccc(C(C)(C)C)cc2)CC1	62 to 64 °C
O=C(CSCCCCCCO)c1ccc2[nH]c(=O)[nH]c2c1	180 to 181 °C

Query :: Can you look up the measured melting point of Cc1nc(NCc2ccccc2)sc1C(=O)NCc1ccccc1 for me?
Result :: 169 to 172 °C

Query :: // same read-out, input: O=C1CCNC(C(O)c2ccccc2)C1 (stereo unspecified)
Result :: 124 to 126 °C

Query :: How about Cc1cc2c(cc1Br)OCC(C)(C)CC2(O)c1ccccn1 (stereo unspecified) ?
Result :: 129 °C

Query :: How about COCOc1cc(CCC(=O)c2c(OC)cc(OC)c(CCC(C)C)c2O)ccc1OC ?
Result :: 93.5 to 94.5 °C

Query :: Next: O=C(C(=O)N1CCC(Oc2cccc(Cl)c2)CC1)c1c[nH]c2ccccc12
Result :: 145 to 147 °C

Query :: # repeat for O=[N+]([O-])c1cc(-c2cnc3ccccn23)cc(O)c1O
Result :: 110 °C

Query :: # iterate: O=C(O)[C@@H]1CCCN1S(=O)(=O)c1cc(Cl)cc(Cl)c1O
Result :: 107 °C

Query :: Also Sc1nc(-c2ccc(Cl)c(Cl)c2)c(-c2cccs2)[nH]1 ?
Result :: 263 to 265 °C

Query :: Again, but for CO[C@@H]1[C@H](O)[C@@H](CO)O[C@H]1n1cnc2c(N[C@H](C)Cc3sccc3Cl)ncnc21
Result :: 75 to 76 °C

###

measurement.kind: melting point

Consider the reported melting point for these compounds:
compound	melting point
COCCN(CCOC)c1ccc(Nn2c(C)ccc2C)nn1	112 to 114 °C
NC(=O)N(O)CCNC(=O)c1cccc(S(=O)(=O)c2ccc(Cl)cc2)c1	183 to 186 °C
O=C(c1ccc(F)cc1)N1CCC[C@H](c2nc(-c3cscn3)no2)C1	118 to 120 °C
CCOC(=O)C1CCN(c2nc(COc3ccc(C=O)cc3OC)c(C)s2)CC1	97 to 98 °C
CCC(CC)Nc1cc(C)nc(Cl)c1[N+](=O)[O-]	82 to 84 °C

Query :: Given CCOc1cc2c(cc1OCC)[C@@H]1CCCC[C@@H]1N=C2c1ccc(O)cc1 (racemic) , state its recorded melting point.
Result :: 232 to 234 °C

Query :: Param item: CCOC(=O)C1=C(C)N=C(SCc2ccc(OC)cc2)N(C(=O)OCC)C1c1ccccc1OC (stereo unspecified)
Result :: 116 to 118 °C

Query :: Again, but for COc1ccc(CN2C(=O)[C@H](CO)[C@H]2S(=O)(=O)C(C)(C)C)cc1
Result :: 121 to 122 °C

###

measurement.kind: melting point

Query :: Quick one: melting point for COc1cc2cc(C(C)C)sc2c(Cl)c1Cl ?
Result :: < 37 °C

Query :: Cool, now CC(C)N1CCN(C(=O)c2ccc(-c3ccc(=O)n(C)n3)cc2)CC1
Result :: 131 to 132 °C

Query :: Now consider O=S(=O)(c1cc(Cl)ccc1O)N1CCCC1 and answer again.
Result :: 101 to 102 °C

Query :: What do you get for Brc1ccc2nc(-c3cccnc3)nn2c1 ?
Result :: 176 °C

Query :: Could you do the same for OCC(O)(C(F)(F)F)C(F)(F)F , please?
Result :: 47 °C

Query :: Repeat for the following compound: Cc1cc(N)c([N+](=O)[O-])cc1NCCO
Result :: 141 °C

Query :: Could you do the same for N#Cc1ccc(C=Cc2ccccn2)cc1 , please?
Result :: 98 °C

Query :: Proceed to COc1ccccc1CC(=O)N1C[C@@H]2C(=O)CCC(c3ccccc3)(c3ccccc3)[C@@H]2C1 (racemic)
Result :: 163 °C

Query :: Param item: CC(C)(C)OC(=O)NCC(=O)OCCCCNc1cccc2c1C(=O)c1ccccc1C2=O
Result :: 70 °C

Query :: Same thing, different compound: CC(=O)Nc1cccc(C(=O)N2CCN(CCc3ccc(Cl)cc3)CC2)c1
Result :: 101 to 107 °C

Query :: How about this compound: CCCn1c(=O)n2c(C)nnc2c2c1ncn2C
Result :: 192 to 194 °C

Query :: How about this compound: BrCc1nc(-c2ccccc2)cc2ccccc12
Result :: 84 °C

Query :: Entry to check: CCOC(=O)c1ccc(-c2ccnc(Nc3cc(OC)c(OC)c(OC)c3)n2)cc1
Result :: 181 to 182 °C

Query :: Queued: CCN1CCc2ccc(Nc3ncc(Cl)c(N[C@@H]4CCCC[C@H]4NC(=O)C(F)(F)F)n3)cc2CC1
Result :: 165 °C

Query :: Please do the same for O=C(CCCO)Nc1cccc(/C=C/c2nc3ccccc3s2)c1 as well.
Result :: 191 to 192 °C

###

Here the recorded melting point is given for each entry.

# count of solved cases: 4
compound	value.measured
Clc1ccc(-n2ccc(OCc3ccccc3Br)n2)cc1	45 °C
COc1cccc(C23CN(C)CC2CC32OCC(C)(C)CO2)c1 (stereo not given)	132 to 135 °C
CC(c1ccccc1)N1CC2Cc3cc4ccccc4n3CC2C1 (stereo not given)	153 °C
Cc1c(Cl)cc(C#N)n1CCC(C)NC(=O)C(C#N)C(C)C(C)(C)C (stereo not given)	111 to 118 °C

Okay, now this compound:
Query :: Query (compound): O=c1[nH]c(C(F)(F)F)c(Br)c(=O)n1-c1c(Cl)cc(Cl)cc1Cl ; field requested: melting point
Result :: 219 to 222 °C

###

melting point listing for selected molecules.

// below: answered molecules
molecule	melting point
CCCCCn1ncc2c(N)c3c(nc21)CCNC3=O	161 to 162 °C
N#Cc1cc([N+](=O)[O-])ccc1Oc1c(F)c(F)c(F)c(F)c1F	128 to 129 °C
CCc1cnc2ccnn2c1NCc1ccc(-c2ccccc2C#N)cc1	151 to 153 °C
O=C1N=NC(=O)c2ccccc21	257 to 259 °C
CNC(=O)[C@@H](C[C@H](O)[C@H](CC1CCCCC1)NC(=O)[C@H](Cc1cscn1)NC(=O)[C@@H](CC(=O)N1CCOCC1)Cc1ccc(OC)cc1)C(C)C	128 to 130 °C
COCCN1CCN(C)c2cc(Nc3ncc(Cl)c(N[C@@H]4CCCC[C@H]4NS(C)(=O)=O)n3)c(OC)cc2C1	89 °C

Continue with the molecule presented below.
Query :: Please give the measured melting point for this molecule: COc1cc(-n2c(-c3ccc(SC)cc3)nc(SC)c(C#N)c2=O)cc(OC)c1OC
Result :: 192 to 195 °C
